EC50/pM (1% HSA) values, listed per item
# assayTarget: human GLP-1 receptor (human, UniProt P43220)
# Sequence (P43220 24-463): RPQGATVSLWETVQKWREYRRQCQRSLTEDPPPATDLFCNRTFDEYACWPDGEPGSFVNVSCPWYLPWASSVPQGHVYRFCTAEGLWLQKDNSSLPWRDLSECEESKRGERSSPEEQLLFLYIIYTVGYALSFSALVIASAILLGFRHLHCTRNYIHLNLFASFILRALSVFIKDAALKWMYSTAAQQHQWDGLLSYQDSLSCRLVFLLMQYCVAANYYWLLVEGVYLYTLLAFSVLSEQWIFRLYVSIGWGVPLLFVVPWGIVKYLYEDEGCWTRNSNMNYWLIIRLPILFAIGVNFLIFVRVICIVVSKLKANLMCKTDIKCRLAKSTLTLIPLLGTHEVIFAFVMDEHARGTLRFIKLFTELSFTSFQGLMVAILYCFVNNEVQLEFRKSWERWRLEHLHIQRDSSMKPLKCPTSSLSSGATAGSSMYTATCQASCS
*1 amine or outer side, *2 acyl side, *3 side chain or, on linkers, in order; H or OH if unused. Where no end group is shown, it is not given here. Side-chain parts run from the residue outwards. [ ]: non-standard residue; d: D form. The star is where a group is joined. Undecanoyl(11-OPh(4-COOH)) = O=C(O)c1ccc(OCCCCCCCCCCC(=O)*)cc1; Decanoyl(10-O(3-COOH-Ph)) = O=C(O)c1cccc(OCCCCCCCCCC(=O)*)c1; γGlu = O=C(O)[C@H](CCC(=O)[*:2])N[*:1]; C14 diacid = O=C(O)CCCCCCCCCCCCC(=O)*; AEEA = NCCOCCOCC(=O)O; Aib = CC(C)(N)C(=O)O
reportedProperty: EC50/pM (1% HSA) (pM)

[[record]]
binder = "H[Aib]EGTFTSDVSSYLEEQAAREFIAWLVQGK([AEEA-AEEA-γGlu-Undecanoyl(11-OPh(4-COOH))])K([AEEA-AEEA-γGlu-Undecanoyl(11-OPh(4-COOH))]) [GLP-1 derivative of Example 7]"
reportedproperty = "EC50/pM (1% HSA)"
observedvalue = 143

[[record]]
binder = "H[Aib]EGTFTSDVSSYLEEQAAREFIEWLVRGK([AEEA-AEEA-γGlu-Decanoyl(10-O(3-COOH-Ph))])K([AEEA-AEEA-γGlu-Decanoyl(10-O(3-COOH-Ph))]) [GLP-1 derivative of Example 27]"
reportedproperty = "EC50/pM (1% HSA)"
observedvalue = 105

[[record]]
binder = "H[Aib]EGTFTSDVSSYLEEQAAREFIAWLVRGKK (not fully specified (residues 30, 31)) [GLP-1 derivative of Example 1]"
reportedproperty = "EC50/pM (1% HSA)"
observedvalue = 136

[[record]]
binder = "H[Aib]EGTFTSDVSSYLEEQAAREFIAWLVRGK([AEEA-AEEA-AEEA-γGlu-C14 diacid])K([AEEA-AEEA-AEEA-γGlu-C14 diacid]) [GLP-1 derivative of Example 12]"
reportedproperty = "EC50/pM (1% HSA)"
observedvalue = 10

